# Target: α-amylase
# Assay Summary: in vitro enzyme inhibition assay (Wickramaratne method)
# Type: biochemical
# Test Parameters: read-out: The in vitro median inhibitory concentrations (IC50 ± SE) (μM) / Anti-diabetic activity ^a / α-amylase
Measure: IC50

[
  {
    "Molecule": "C=CCNc1nnc2c(N3CCCC3)nc3ccc(S(=O)(=O)N4CCCC4)cc3n12 [10a]",
    "Observed Value": "6.89 µM"
  }
]
